The reported numbers originate from patent US11384060B2.

Molecular target: glucagon receptor (GCGR) overexpressed CHO-K1 cells or human primary hepatocytes (Homo sapiens, UniProt P47871)
Construct: expressed in transfected cells; host or cells: GCGR overexpressed CHO-K1 cells or human primary hepatocytes (endogenous receptor)
Sequence (P47871 26-477): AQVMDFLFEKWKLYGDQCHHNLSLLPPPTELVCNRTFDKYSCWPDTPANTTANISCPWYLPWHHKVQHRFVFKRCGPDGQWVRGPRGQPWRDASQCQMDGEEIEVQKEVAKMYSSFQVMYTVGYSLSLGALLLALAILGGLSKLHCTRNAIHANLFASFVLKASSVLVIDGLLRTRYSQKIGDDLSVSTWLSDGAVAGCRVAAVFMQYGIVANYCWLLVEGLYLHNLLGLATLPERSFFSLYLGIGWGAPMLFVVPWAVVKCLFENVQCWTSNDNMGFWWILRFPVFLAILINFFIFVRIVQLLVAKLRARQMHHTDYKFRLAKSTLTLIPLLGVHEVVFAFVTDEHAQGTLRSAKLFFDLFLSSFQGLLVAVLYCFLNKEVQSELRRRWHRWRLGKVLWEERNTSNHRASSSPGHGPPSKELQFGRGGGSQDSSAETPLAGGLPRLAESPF
Assay: Glucagon cAMP inhibition assay (Cisbio cAMP Dynamic 2 HTRF)
Format: cell-based
Please note: IC50 cAMP exactly at 0.3 µM is Condition not met. Only values below 0.3 µM get Condition met.

[
  {
    "molecule": "CCCC[C@@H](COc1ccc(-c2cc3ccccc3o2)cn1)Nc1ccc(C(=O)NCCS(=O)(=O)O)cc1 [Compound 15-23]",
    "category": "Condition not met"
  },
  {
    "molecule": "CC[C@H](C)[C@@H](COc1ccc(-c2ccc(F)cc2F)cn1)Nc1ccc(C(=O)NCCS(=O)(=O)O)cc1 [Compound 15-21]",
    "category": "Condition not met"
  },
  {
    "molecule": "CCC(C)[C@H](Nc1ccc(C(=O)NCCC(=O)O)cc1)c1nnc(-c2oc3ccccc3c2C)o1 (some centres unmarked) [Compound 20-2]",
    "category": "Condition not met"
  },
  {
    "molecule": "CCOC(=O)CCNC(=O)c1ccc(N[C@@H](CC(C)C)C(=O)Nc2ccc(-c3cc4ccccc4o3)cc2)cc1 [Compound 23-6]",
    "category": "Condition met"
  },
  {
    "molecule": "CCOC(=O)CCNC(=O)c1ccc(N[C@H](Cc2ccc(-c3cc4ccccc4o3)cc2)C(=O)Nc2cc(F)cc(F)c2)cc1 [Compound 24-23]",
    "category": "Condition not met"
  },
  {
    "molecule": "CC[C@H](C)[C@@H](COc1ccc(-c2ccc(C(F)(F)F)cc2Cl)cn1)Nc1ccc(C(=O)NCCC(=O)O)cc1 [Compound 15-13]",
    "category": "Condition met"
  },
  {
    "molecule": "CCCC[C@H](Cc1ccc(-c2ccc(C(F)(F)F)cc2)cc1)Nc1ccc(C(=O)NCCC(=O)O)cc1 [Compound 19-1]",
    "category": "Condition not met"
  },
  {
    "molecule": "O=C(O)CCNC(=O)c1ccc(N[C@@H](Cc2ccccc2)C(=O)Nc2ccc(-c3cc4ccccc4o3)cc2)cc1 [Compound 23-8]",
    "category": "Condition not met"
  },
  {
    "molecule": "CCOC(=O)CCNC(=O)c1ccc(N[C@@H](CC(C)C)C(=O)Nc2ccc(-c3cc4ccccc4s3)cc2)cc1 [Compound 23-11]",
    "category": "Condition not met"
  },
  {
    "molecule": "CCOC(=O)CCNC(=O)c1ccc(N[C@H](C(=O)Nc2ccc3cc(OC)ccc3c2)[C@@H](C)CC)cc1 [Compound 24-7]",
    "category": "Condition met"
  }
]

Q. Given O=C(O)CCNC(=O)c1ccc(N[C@H](COc2ccc(C(F)(F)F)cn2)c2ccc(-c3ccc(C(F)(F)F)cc3)cc2)cc1 [Compound 15-27] , is recorded IC50 cAMP strictly lower than 0.3 µM?
A. Condition not met

Q. Note, next up: Cc1cc(C)c(-c2ccc(C[C@H](Nc3ccc(C(=O)NCCC(=O)O)cc3)C(=O)Nc3ccc(C(C)(C)C)cc3)cc2)c(C)c1 [Compound 23-25]
A. Condition not met

Q. Subsequent entry: CC(C)COC[C@@H](Cc1ccc(-c2ccc(Cl)cc2Cl)cc1)Nc1ccc(C(=O)NCCC(=O)O)cc1 [Compound 19-20]
A. Condition not met

Q. And for Cc1nc(OC[C@H](CC(C)C)Nc2ccc(C(=O)NCCC(=O)O)cc2)ccc1-c1ccc(C(F)(F)F)cc1Cl [Compound 18-7] ?
A. Condition met
